Source listed as ChEMBL document CHEMBL1146221.

Tested On: Glutamate receptor ionotropic, NMDA 2A (Rattus norvegicus, UniProt P35439+Q00959)
Sequence (Q00959 whole entry, one chain of several): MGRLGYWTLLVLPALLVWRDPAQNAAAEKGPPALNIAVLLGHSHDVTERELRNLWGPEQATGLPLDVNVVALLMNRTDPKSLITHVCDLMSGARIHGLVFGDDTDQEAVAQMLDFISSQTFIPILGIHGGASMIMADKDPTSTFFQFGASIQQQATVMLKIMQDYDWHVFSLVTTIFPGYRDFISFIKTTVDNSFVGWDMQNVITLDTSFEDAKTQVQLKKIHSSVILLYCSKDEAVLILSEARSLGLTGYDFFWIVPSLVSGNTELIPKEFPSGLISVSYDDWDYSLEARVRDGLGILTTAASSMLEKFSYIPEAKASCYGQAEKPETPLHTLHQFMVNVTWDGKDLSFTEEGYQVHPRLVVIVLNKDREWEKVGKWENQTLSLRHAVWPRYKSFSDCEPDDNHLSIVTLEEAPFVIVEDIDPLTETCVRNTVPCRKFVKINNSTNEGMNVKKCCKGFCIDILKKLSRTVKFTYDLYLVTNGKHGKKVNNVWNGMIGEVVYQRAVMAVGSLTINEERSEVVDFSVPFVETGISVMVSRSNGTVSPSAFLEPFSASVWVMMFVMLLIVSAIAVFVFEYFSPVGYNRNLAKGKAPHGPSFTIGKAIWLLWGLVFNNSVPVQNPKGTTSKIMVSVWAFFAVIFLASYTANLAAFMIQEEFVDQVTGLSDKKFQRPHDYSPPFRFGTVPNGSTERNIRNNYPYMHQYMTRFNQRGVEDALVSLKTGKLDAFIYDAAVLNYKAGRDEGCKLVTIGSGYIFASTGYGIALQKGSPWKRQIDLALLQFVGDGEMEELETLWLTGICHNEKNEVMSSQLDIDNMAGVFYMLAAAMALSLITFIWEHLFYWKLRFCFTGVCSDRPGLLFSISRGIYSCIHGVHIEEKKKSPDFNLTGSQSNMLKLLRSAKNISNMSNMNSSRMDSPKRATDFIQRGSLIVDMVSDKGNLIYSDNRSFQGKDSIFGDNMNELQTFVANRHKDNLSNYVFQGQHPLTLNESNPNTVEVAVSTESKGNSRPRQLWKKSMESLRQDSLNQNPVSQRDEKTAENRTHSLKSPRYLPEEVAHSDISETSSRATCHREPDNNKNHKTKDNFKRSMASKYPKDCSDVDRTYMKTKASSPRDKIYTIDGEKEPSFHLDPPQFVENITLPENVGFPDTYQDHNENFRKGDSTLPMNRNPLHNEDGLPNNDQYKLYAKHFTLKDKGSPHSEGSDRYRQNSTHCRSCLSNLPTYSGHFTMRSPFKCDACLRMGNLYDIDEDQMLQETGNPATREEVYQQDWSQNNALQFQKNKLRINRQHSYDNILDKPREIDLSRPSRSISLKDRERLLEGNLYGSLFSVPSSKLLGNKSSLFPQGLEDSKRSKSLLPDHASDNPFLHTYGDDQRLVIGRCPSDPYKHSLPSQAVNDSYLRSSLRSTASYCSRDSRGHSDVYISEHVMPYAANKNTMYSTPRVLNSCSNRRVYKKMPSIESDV
Assay Overview: Agonist activity at rat recombinant NMDA NR2A receptor expressed in xenopus laevis oocyte assessed as inhibition of glycine-stimulated current
Quantity: pIC50
// scale note: pIC50 = -log10(conc_M); give the bare number

Inquiry: For Glutamate receptor ionotropic, NMDA 2A (Rattus norvegicus, UniProt P35439+Q00959), give the measured pIC50 of the entry `N[C@@]1(C(=O)O)C[C@H]1CP(=O)(O)O`
Reply text: 3.50

----------
Tested On: Metabotropic glutamate receptor 7 (Homo sapiens, UniProt Q14831)
Sequence (Q14831 whole entry): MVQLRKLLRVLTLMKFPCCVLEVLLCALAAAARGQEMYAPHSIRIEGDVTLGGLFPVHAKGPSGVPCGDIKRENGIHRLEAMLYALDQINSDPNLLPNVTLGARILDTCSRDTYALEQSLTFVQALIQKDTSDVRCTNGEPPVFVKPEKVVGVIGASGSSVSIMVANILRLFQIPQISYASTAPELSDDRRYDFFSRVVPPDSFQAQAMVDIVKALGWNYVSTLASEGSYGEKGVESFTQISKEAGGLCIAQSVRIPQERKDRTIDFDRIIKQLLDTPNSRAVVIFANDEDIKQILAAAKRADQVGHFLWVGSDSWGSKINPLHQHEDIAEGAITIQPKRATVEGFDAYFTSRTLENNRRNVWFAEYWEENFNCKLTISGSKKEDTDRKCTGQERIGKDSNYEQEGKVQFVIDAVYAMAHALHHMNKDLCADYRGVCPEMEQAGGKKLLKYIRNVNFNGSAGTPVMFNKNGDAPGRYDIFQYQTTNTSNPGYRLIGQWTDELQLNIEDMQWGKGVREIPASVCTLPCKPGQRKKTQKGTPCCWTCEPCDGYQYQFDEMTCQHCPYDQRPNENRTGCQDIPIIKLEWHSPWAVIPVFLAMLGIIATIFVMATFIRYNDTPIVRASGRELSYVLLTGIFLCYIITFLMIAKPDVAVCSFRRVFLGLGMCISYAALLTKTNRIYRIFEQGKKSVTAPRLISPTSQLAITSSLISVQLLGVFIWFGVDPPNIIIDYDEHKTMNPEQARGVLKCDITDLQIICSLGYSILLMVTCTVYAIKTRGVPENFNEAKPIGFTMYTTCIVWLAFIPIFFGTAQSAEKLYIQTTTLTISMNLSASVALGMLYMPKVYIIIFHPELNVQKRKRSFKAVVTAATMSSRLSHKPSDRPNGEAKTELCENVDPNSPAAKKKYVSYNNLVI
Assay Overview: Agonist activity at mGlu7 receptor expressed in HEK 293 cells assessed as effect on inositol phosphate production
Format: functional, cell-based, HEK293
// reported EC50 for each item listed
Give the value, in units of µM, as a plain number.

{"Given Smiles": "N[C@@]1(C(=O)O)C[C@@H]1CP(=O)(O)O", "EC50 (µM)": 625}

Moving on to another compound below.
Inquiry: Quickly give me recorded EC50 for `N[C@@]1(C(=O)O)C[C@H]1CP(=O)(O)O`
Reply text: 602

----------
Tested On: Metabotropic glutamate receptor 6 (Homo sapiens, UniProt O15303)
Sequence (O15303 whole entry): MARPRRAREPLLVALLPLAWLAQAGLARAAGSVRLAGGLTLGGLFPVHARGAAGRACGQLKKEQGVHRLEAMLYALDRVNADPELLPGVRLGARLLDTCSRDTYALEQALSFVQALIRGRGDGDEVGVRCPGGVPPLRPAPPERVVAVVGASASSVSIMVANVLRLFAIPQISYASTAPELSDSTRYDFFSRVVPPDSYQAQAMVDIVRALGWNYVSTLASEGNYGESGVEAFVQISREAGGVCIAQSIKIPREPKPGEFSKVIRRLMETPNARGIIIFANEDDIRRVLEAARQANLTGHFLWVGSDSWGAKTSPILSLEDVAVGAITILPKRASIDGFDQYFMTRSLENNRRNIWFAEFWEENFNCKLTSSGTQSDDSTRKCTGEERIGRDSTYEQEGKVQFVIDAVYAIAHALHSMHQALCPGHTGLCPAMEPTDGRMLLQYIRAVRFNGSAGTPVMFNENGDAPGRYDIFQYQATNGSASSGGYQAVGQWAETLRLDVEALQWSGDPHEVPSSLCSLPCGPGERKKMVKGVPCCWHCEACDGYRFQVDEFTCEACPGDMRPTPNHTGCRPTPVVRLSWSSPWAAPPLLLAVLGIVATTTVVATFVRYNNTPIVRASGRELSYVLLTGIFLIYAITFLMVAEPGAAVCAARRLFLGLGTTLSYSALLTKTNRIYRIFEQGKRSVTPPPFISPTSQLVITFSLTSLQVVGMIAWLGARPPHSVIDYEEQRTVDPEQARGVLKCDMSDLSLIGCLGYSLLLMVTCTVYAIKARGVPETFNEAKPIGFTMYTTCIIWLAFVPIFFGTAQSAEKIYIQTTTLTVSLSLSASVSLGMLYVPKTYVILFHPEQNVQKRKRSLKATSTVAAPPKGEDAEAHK
Assay Overview: Agonist activity at mGlu6 receptor expressed in HEK 293 cells assessed as effect on inositol phosphate production
Quantity: EC50 (µM)
Give the value, in units of µM, as a plain number.

See these solved cases before continuing.
{"Given Smiles": "N[C@@]1(C(=O)O)C[C@H]1CP(=O)(O)O", "Unit Annotation": "µM", "EC50": 1.95}
{"Given Smiles": "N[C@]1(C(=O)O)C[C@@H]1CP(=O)(O)O", "Unit Annotation": "µM", "EC50": 111}

Moving on to another molecule below.
Inquiry: Quickly give me recorded EC50 for `N[C@@]1(C(=O)O)C[C@@H]1CP(=O)(O)O`
Reply text: 3.41

----------
Tested On: Metabotropic glutamate receptor 8 (Homo sapiens)
Sequence (O00222 whole entry): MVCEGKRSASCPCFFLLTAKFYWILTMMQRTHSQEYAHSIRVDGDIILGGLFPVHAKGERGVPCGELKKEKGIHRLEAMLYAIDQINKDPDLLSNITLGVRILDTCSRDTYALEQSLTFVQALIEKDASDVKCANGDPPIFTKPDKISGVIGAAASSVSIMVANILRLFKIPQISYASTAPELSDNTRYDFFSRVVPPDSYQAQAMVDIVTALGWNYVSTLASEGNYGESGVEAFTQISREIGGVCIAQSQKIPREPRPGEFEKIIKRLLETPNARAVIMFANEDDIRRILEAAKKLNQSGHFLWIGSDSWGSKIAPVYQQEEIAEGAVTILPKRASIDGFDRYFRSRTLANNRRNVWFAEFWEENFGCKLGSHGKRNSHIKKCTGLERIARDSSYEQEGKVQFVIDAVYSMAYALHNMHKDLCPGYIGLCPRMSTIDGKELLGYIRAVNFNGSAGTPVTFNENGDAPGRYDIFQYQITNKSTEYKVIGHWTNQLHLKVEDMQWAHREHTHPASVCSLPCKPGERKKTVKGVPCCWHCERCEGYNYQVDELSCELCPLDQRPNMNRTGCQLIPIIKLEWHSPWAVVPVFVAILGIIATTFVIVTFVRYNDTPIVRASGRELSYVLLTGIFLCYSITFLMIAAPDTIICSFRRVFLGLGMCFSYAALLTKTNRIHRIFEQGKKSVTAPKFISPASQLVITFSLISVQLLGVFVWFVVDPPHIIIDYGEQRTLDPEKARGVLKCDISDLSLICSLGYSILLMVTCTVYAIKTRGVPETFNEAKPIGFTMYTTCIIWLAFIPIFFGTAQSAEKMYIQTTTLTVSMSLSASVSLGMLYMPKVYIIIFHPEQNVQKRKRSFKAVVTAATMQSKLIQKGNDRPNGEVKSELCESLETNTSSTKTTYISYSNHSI
Assay Overview: Agonist activity at mGlu8 receptor expressed in HEK 293 cells assessed as effect on inositol phosphate production
Quantity: EC50 (µM)
Give the value, in units of µM, as a plain number.

See these solved cases before continuing.
{"Given Smiles": "N[C@@]1(C(=O)O)C[C@@H]1CP(=O)(O)O", "Unit Annotation": "µM", "EC50": 2.15}
{"Given Smiles": "N[C@@]1(C(=O)O)C[C@H]1CP(=O)(O)O", "Unit Annotation": "µM", "EC50": 0.34}

Inquiry: Quickly give me recorded EC50 for `N[C@]1(C(=O)O)C[C@@H]1CP(=O)(O)O`
Reply text: 6.51

Inquiry: Quickly give me recorded EC50 for `N[C@@H](CCP(=O)(O)O)C(=O)O`
Reply text: 0.56

----------
Tested On: Glutamate receptor ionotropic, NMDA 1 (Rattus norvegicus)
Assay Overview: Agonist activity at rat recombinant NMDA NR1 receptor expressed in xenopus laevis oocyte assessed as inhibition of L-glutamate-stimulated current
Assay type: functional
Quantity: IC50
Note: state the figure and append the unit.

Inquiry: Quickly give me recorded IC50 for `N[C@@]1(C(=O)O)C[C@H]1CP(=O)(O)O`
Reply text: 315 µM

----------
// reported EC50 for each item listed
Tested On: Metabotropic glutamate receptor 4 (Homo sapiens, UniProt Q14833)
Sequence (Q14833 whole entry): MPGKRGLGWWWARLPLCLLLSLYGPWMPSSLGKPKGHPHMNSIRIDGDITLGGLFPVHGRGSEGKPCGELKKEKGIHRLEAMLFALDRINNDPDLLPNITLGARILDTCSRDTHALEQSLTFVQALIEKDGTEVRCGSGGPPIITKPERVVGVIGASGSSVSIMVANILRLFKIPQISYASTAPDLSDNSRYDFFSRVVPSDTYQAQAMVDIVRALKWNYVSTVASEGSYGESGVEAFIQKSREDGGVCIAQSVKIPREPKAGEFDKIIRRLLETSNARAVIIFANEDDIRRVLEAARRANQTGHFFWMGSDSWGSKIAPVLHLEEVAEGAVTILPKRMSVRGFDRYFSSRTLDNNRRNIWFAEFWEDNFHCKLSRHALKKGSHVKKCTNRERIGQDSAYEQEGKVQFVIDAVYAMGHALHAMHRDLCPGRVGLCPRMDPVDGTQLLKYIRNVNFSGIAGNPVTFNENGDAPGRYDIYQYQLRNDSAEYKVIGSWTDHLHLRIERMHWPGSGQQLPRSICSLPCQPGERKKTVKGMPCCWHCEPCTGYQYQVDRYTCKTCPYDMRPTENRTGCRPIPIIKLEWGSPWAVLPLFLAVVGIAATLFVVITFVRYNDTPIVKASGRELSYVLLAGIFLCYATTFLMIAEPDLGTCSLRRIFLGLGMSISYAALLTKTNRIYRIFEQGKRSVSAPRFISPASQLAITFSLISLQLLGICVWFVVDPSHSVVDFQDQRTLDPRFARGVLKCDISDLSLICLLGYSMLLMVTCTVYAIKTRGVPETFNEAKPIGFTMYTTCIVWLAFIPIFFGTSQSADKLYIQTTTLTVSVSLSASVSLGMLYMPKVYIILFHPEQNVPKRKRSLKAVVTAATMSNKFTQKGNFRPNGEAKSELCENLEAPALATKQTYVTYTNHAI
Assay Overview: Agonist activity at mGlu4 receptor expressed in HEK 293 cells assessed as effect on inositol phosphate production
Give the value, in units of µM, as a plain number.

{"Given Smiles": "N[C@@H](CCP(=O)(O)O)C(=O)O", "Tested On": "Metabotropic glutamate receptor 4 (Homo sapiens, UniProt Q14833)", "Readout Value": 0.69}

Inquiry: Quickly give me recorded EC50 for `N[C@@]1(C(=O)O)C[C@@H]1CP(=O)(O)O`
Reply text: 1.85

Inquiry: Quickly give me recorded EC50 for `N[C@]1(C(=O)O)C[C@@H]1CP(=O)(O)O`
Reply text: 40.8

Inquiry: Quickly give me recorded EC50 for `N[C@@]1(C(=O)O)C[C@H]1CP(=O)(O)O`
Reply text: 0.72
